Form field: IC50 (one value per entry).
Molecular target: cyclin B/CDK1 enzyme (Homo sapiens)
Construct: purchased New England BioLabs; host or cells: Sf9 insect cells, recombinant baculovirus
Sequence (P06493 whole entry): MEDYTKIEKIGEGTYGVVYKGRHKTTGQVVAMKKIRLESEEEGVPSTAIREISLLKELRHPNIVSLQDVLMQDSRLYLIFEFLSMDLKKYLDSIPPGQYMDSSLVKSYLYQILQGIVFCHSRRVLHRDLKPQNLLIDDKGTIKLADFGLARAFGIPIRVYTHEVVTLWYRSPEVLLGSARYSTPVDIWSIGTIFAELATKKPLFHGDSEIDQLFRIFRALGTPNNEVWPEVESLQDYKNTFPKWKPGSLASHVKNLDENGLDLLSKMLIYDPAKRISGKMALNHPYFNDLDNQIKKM
Sequence (P14635 whole entry partner): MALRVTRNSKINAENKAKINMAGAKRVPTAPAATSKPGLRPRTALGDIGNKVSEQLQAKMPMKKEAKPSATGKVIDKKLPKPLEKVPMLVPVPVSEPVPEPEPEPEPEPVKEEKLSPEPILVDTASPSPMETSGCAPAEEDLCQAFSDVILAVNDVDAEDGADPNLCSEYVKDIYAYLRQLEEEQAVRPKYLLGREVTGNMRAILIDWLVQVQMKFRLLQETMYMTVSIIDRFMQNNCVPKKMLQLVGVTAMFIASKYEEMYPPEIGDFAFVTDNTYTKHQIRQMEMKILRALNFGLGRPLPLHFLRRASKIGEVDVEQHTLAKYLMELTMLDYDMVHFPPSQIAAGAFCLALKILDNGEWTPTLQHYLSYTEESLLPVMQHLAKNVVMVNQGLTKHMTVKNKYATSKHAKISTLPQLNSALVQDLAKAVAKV
Experiment: CDK1 ELISA kinase assay (phospho-Rb ser 795 detection)
Type: biochemical
Conditions: In Vitro Enzyme Assay, cyclin B/CDK1, read-out: CDK1 IC50

Examples from the recorded data:
- structure: "CN1CCN(c2ccc(NC=C3C(=O)NC(=O)c4ccc(-c5cc[nH]c5)cc43)cc2)CC1"
  IC50: "> 50 µM"
- structure: "O=C1NC(=O)c2ccc(C3CCCC3)cc2/C1=C/NCc1ccc(-c2ccoc2)c(O)c1"
  IC50: "> 50 µM"
- structure: "O=C1NC(=O)c2ccc(-c3ccoc3)cc2/C1=C/Nc1ccc(CN2CCC(CCO)CC2)cc1"
  IC50: "> 50 µM"

QUERY: Notebook: pull reported IC50 for cyclin B/CDK1 enzyme (Homo sapiens), entry CN1CCN(c2ccc(N/C=C3\C(=O)NC(=O)c4ccc(-c5cccn5C)cc43)cn2)CC1
RESULT: > 50 µM

QUERY: Notebook: pull reported IC50 for cyclin B/CDK1 enzyme (Homo sapiens), entry CN1CCN(c2ccc(NC=C3C(=O)NC(=O)c4ccc(-c5ccn(CCCC#N)c5)cc43)cc2)CC1
RESULT: > 50 µM
